Source: ChEMBL document CHEMBL2390941

Molecular target: Enoyl-acyl carrier reductase (Toxoplasma gondii) (UniProt Q6UCJ9)
Sequence (whole entry): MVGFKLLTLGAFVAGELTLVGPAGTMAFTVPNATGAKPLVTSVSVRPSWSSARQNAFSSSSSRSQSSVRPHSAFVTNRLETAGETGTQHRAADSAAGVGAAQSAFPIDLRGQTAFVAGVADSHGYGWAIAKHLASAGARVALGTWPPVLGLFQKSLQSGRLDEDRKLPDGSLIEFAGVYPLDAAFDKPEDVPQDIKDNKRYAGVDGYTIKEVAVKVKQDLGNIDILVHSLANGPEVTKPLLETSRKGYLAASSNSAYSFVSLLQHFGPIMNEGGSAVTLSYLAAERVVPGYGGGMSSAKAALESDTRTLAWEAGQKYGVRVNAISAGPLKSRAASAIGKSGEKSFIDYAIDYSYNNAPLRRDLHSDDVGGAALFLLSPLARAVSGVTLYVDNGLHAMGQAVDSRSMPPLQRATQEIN
Experiment: Inhibition of Toxoplasma gondii enoyl acyl-carrier protein reductase at 1 uM
RESULT_TYPE: inhibition (%)

> print(dat)
                                  structure                            assayed.system  unit.of.measurement  obs.value
1              Oc1cc(Cl)ccc1Oc1ccc(Cl)cc1Cl  Enoyl-acyl carrier reductase (Toxoplasma gondii) (UniProt Q6UCJ9)                    %         98
2  N#Cc1ccc(Oc2ccc(-c3cc(CCO)on3)cc2Cl)c(O)c1  Enoyl-acyl carrier reductase (Toxoplasma gondii) (UniProt Q6UCJ9)                    %         94
3  CCCc1cc(-c2ccc(Oc3ccc(CNC(=O)c4cc(C)on4)cc3O)c(Cl)c2)no1  Enoyl-acyl carrier reductase (Toxoplasma gondii) (UniProt Q6UCJ9)                    %         89

====

biological target: Enoyl-acyl carrier reductase (Toxoplasma gondii, UniProt Q6UCJ9); assay: Inhibition of Toxoplasma gondii enoyl acyl-carrier protein reductase
pIC50: −log10 of the molar value.
Attribute: pIC50
RESULT_TYPE: pIC50

> print(dat)
                                  structure  result.type  obs.value
1  N#Cc1ccc(Oc2ccc(-c3cc(CCO)on3)cc2Cl)c(O)c1        pIC50       7.47
2  CCCc1cc(-c2ccc(Oc3ccc(CNC(=O)c4cc(C)on4)cc3O)c(Cl)c2)no1        pIC50       6.86
3  CCCc1cc(-c2ccc(Oc3ccc(C#N)cc3O)c(Cl)c2)no1        pIC50       7.54
